# Test target: particulate guanylyl cyclase receptor A (pGC-A) (Homo sapiens, UniProt P16066)
# Sequence (P16066 33-1061): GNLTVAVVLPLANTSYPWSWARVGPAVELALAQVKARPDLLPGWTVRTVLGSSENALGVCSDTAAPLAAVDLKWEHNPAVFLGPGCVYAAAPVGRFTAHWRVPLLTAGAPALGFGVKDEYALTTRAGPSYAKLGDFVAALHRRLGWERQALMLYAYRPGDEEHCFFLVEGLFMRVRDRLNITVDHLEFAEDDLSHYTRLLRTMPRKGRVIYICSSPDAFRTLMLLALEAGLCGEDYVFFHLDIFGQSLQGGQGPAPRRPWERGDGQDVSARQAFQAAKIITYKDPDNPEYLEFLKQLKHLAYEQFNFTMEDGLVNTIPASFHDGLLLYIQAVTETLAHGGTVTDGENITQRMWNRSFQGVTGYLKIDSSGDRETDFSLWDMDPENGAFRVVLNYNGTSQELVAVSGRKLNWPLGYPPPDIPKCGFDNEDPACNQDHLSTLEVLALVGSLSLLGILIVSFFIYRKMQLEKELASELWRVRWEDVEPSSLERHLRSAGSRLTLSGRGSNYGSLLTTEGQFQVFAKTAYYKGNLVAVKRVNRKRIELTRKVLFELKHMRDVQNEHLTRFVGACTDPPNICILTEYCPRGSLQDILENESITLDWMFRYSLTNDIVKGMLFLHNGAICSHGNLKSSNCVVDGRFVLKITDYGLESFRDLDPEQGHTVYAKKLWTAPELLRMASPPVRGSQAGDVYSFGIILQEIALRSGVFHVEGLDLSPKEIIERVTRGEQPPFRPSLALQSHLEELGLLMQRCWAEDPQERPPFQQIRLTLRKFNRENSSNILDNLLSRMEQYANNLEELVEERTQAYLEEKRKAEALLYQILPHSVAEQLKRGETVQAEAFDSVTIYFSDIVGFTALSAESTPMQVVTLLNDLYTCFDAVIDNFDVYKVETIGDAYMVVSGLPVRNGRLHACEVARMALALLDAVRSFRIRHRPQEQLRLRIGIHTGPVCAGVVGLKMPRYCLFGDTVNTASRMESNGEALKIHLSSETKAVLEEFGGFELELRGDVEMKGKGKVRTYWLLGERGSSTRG
# Sequence (P01160 124-151 partner limits assumed): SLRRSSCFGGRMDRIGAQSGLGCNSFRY
# Method: cGMP production by HTRF in HEK293 cells overexpressing pGC-A, with ANP
# Condition: HEK293 cells overexpressing pGC-A; test compound plus EC20 concentration of ANP; cGMP by HTRF
Metric name: EC50

Solved cases (4 shown):
Molecule	EC50
CN(C)CCN1CCCC(NC(=O)c2nc3c(F)cc(F)cc3s2)C1 (centres unmarked)	> 10 µM
CN(C)CCN1CCCC(C(=O)Nc2nc(-c3ccc(Cl)cc3)cs2)C1 (centres unmarked)	> 5 µM
COCc1cc(F)c2nc(NC(=O)C3CCCNC3)sc2c1 (centres unmarked)	> 5 µM
CN(C)CCN1CCCC(C(=O)Nc2nc3c(F)ccc(F)c3s2)C1 (centres unmarked)	> 5 µM

Now consider a different molecule.
For this molecule ( COc1ccccc1-c1csc(NC(=O)C2CCCN(CCN(C)C)C2)n1 (centres unmarked) ), measured EC50 is > 5 µM

* * *

# Test target: particulate guanylyl cyclase receptor A (pGC-A) (Homo sapiens)
# Construct: expressed in transfected cells; host or cells: HEK293
# Method: cGMP production by HTRF in HEK293 cells overexpressing pGC-A, with ANP
# Type: cell-based
# Condition: HEK293, HEK293 cells overexpressing pGC-A; cGMP normalized to maximal amount produced by an EC80 concentration of ANP; read-out: Max efficacy
Metric name: Emax (%)
State the answer as a number, implicitly in %.

Please review the entries below; each comes with its answer.
Molecule	Unit of measurement	Emax
CN(C)CCN1CCCCC(C(=O)Nc2nc3c(F)cc(F)cc3s2)C1 (centres unmarked)	%	89
O=C(Nc1nc2c(F)cc(F)cc2s1)C1CCCN(CCn2cccn2)C1 (centres unmarked)	%	88
C=CCN1CCC(N2CCCC(C(=O)Nc3nc4c(F)cc(F)cc4s3)C2)C1 (centres unmarked)	%	89
Cc1cc(F)c2nc(NC(=O)C3CCCN(CCN(C)C)C3)sc2c1 (centres unmarked)	%	101
NCCN1CCCC(C(=O)Nc2nc3c(F)cc(F)cc3s2)C1 (centres unmarked)	%	85
Cn1cc(N2CCCC(C(=O)Nc3nc4c(F)cc(F)cc4s3)C2)cn1 (centres unmarked)	%	86
O=C(Nc1nc2c(F)cc(F)cc2s1)C1CNc2ccccc2C1 (centres unmarked)	%	95
CN(C)CCN1CCCC(C(=O)Nc2nc3cccc(F)c3s2)C1 (centres unmarked)	%	85
CN1CCC(CN2CCCC(C(=O)Nc3nc4c(F)cc(F)cc4s3)C2)CC1 (centres unmarked)	%	92
O=C(Nc1nc2c(F)cc(F)cc2s1)C1CCCN(C2CCNC2)C1 (centres unmarked)	%	72

The molecule listed as CN(C)CCCN1CCCC(C(=O)Nc2nc3c(F)cc(F)cc3s2)C1 (centres unmarked) shows Emax equal to 98

Lookup result for CN(C)CCN1CCCC(C(=O)Nc2nc3c(Cl)cc(F)cc3s2)C1 (centres unmarked) ; measured Emax: 72

Emax measured on O=C(Nc1nc2c(F)cc(F)cc2s1)C1CCCN(CCN2CCCCC2)C1 (centres unmarked) = 91

response.value for O=C(Nc1nc2c(F)cc(F)cc2s1)C1CCCN(CCN2CCOC2=O)C1 (centres unmarked) (field: Emax) = 93

* * *

pEC50 values, listed per item
# Test target: particulate guanylyl cyclase receptor A (pGC-A) (Homo sapiens)
# Method: cGMP production by HTRF in HEK293 cells overexpressing pGC-A, with ANP
# Condition: HEK293 cells overexpressing pGC-A; test compound plus EC20 concentration of ANP; cGMP by HTRF
pEC50: −log10 of the molar value.

Known results for compounds:
Compound	pEC50
CN1CCC(N2CCCCC2C(=O)Nc2nc3c(F)cc(F)cc3s2)C1 (stereo not drawn)	< 5.30
CN(C)CCN1CCCC(C(=O)Nc2nc3ccccc3s2)C1 (stereo not drawn)	< 5.00
CN1CCC(N2CCCC(C(=O)Nc3nc4c(F)cc(F)cc4s3)C2)CC1 (stereo not drawn)	6.70
O=C(Nc1nc2c(F)cc(F)cc2s1)c1ccccc1Cl	< 5.00
O=C(Nc1nc2c(F)cc(F)cc2s1)c1ccc(-c2ccccc2)cc1	< 5.00

Now for another entry.
Record for CN1CCC(N2CCCC(C(=O)Nc3nc4c(F)cc(F)cc4s3)C2)C1 (stereo not drawn) under target or system particulate guanylyl cyclase receptor A (pGC-A) (Homo sapiens): pEC50 reported as 6.70 to 7.52

Cited source: patent US20250092030A1
